# Test system: OCI/AML3
# Assay Text: MTT-based cell proliferation/toxicity assay, OCI/AML3
# Set-up: species or system human
# Assay Setup: Homo sapiens, OCI-AML-3; cell viability, OCI/AML3, 72 h, FIG. 6
pEC50: −log10 of the molar value.
Measurement Name: pEC50

Give the measured pEC50 of COc1ccc(-c2n[nH]c3nc(-c4cccc(NC(C)=O)c4)ccc23)cc1 .
~7.00
